Values compiled from patent US11306063B2.

Target: UniProt:O75604
property-name: IC50 (nM)
The response must be a number in nM with no trailing unit.

Query (compound): CCCCS(=O)(=O)Cc1nc2c(nc1CS(=O)(=O)CCCC)C(=O)c1ccccc1C2=O ; field requested: IC50
200

----------
Target: USP2^CD (purified catalytic domain of USP2) (Homo sapiens)
Construct: The purified catalytic domain of USP2 (USP2^CD, in-house purified); His; made in house; host or cells: E. coli BL21 Gold
Sequence (O75604 267-599 limits assumed): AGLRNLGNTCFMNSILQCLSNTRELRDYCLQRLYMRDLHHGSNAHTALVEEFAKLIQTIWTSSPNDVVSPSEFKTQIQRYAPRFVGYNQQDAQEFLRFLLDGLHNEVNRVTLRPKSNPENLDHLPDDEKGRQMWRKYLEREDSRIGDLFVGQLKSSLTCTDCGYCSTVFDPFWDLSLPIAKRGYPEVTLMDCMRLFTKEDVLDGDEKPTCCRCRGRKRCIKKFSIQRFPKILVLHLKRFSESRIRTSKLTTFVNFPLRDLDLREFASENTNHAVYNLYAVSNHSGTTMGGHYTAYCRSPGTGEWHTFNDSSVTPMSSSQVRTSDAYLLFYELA
Experiment: Inhibition of purified USP2^CD enzymatic activity (Ub-AMC or Ub-Rho substrate)
Assay type: biochemical
Conditions: 1 μM compound; Table 1b
property-name: inhibition at 1 µM

In [3]: df
Out[3]:
                                   compound       property_name  measured
0  CCCCCS(=O)(=O)Cc1nc2c(nc1CS(=O)(=O)CCCCC)C(=O)c1ccccc1C2=O [VIN6077]  inhibition at 1 µM       24%
1  O=C1c2ccccc2C(=O)c2nc(CS(=O)(=O)c3ccc4c(c3)OCCO4)c(CS(=O)(=O)c3ccc4c(c3)OCCO4)nc21 [OVM19]  inhibition at 1 µM       20%
2  O=C1c2ccccc2C(=O)c2nc(CS(=O)(=O)c3ccccc3F)c(CS(=O)(=O)c3ccccc3F)nc21 [OVM24]  inhibition at 1 µM       54%
3  CCCS(=O)(=O)Cc1nc2c(nc1CS(=O)(=O)CCC)C(=O)c1ccccc1C2=O [VIN6074]  inhibition at 1 µM       38%
4  O=C1c2ccccc2C(=O)c2nc(CS(=O)(=O)c3cccc(C(F)(F)F)c3)c(CS(=O)(=O)c3cccc(C(F)(F)F)c3)nc21 [OVM17]  inhibition at 1 µM      -11%

Reported inhibition at 1 µM, compound O=C1c2ccccc2C(=O)c2nc(CS(=O)(=O)c3cccc(F)c3)c(CS(=O)(=O)c3cccc(F)c3)nc21 [OVM13] : ____
17%

Return reported inhibition at 1 µM; argument: CS(=O)(=O)Cc1nc2c(nc1CS(C)(=O)=O)C(=O)c1ccccc1C2=O [VIN6076]
23%

Fill in: inhibition at 1 µM of COc1ccc(S(=O)(=O)Cc2nc3c(nc2CS(=O)(=O)c2ccc(OC)c(OC)c2)C(=O)c2ccccc2C3=O)cc1OC [OVM18] is ___
53%
